For each record, write down the corresponding protein stability index.
B1: ZNF207 (parent)
chain: FQPQPVQPQQGYIPPMAQPGLPPV

variants of: B1; experiment: protein stability index of a GFP-peptide fusion (GPS, HEK-293T) (PSI 1-6); higher = more stable; conditions: c terminus: a fixed tail appended;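 note: lentivirally expressed fusions sorted by FACS into six bins by GFP to DsRed ratio, PSI derived from sequencing read proportions per bin multiplied by bin number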
One number for each entry.

Consider the reported protein stability index for these variants:
| MACROMOLECULE SEQUENCE | protein stability index |
| --- | --- |
| FQVQPVQPQQGYIPPMAQPGLPPV [P3V] | 3.52 |
| FQPQPVQPQQGYEPPMAQPGLPPV [I13E] | 3.71 |
| FQPQPVQPQQIYIPPMAQPGLPPV [G11I] | 2.29 |
| FQPQPVWPQQGYIPPMAQPGLPPV [Q7W] | 2.25 |
| FQPQPVQPQTGYIPPMAQPGLPPV [Q10T] | 3.34 |
| FQPQPVQPQQGYIPPMASPGLPPV [Q18S] | 2.95 |
| FQPQPVQPQQGYIPPMAQPGLQPV [P22Q] | 3.33 |
| FQPQPVQPQQGYIPPDAQPGLPPV [M16D] | 3.7 |
| FVPQPVQPQQGYIPPMAQPGLPPV [Q2V] | 2.51 |
| FQPQPVQPYQGYIPPMAQPGLPPV [Q9Y] | 2.32 |

Respectfully, I request protein stability index for each entry included below.
1. FQPQPVQPQQGGIPPMAQPGLPPV [Y12G]
2. FQPQPVQPQQGYIPRMAQPGLPPV [P15R]
3. KQPQPVQPQQGYIPPMAQPGLPPV [F1K]

**A:**
1. 3.53
2. 2.97
3. 4.37
